Provide the reported IC50 of each item.
# System: renal cancer cell lines
# experiment.summary: Cell based assay, cell viability (CellTiter-Glo), renal cancer cell lines
# stated.conditions: Homo sapiens; ACHN cells

Which IC50 reading was recorded for the compound COc1ccccc1[S+]([O-])c1[nH]c2c(Br)ccc(Cl)c2c(=O)c1C(C)=O (stereo not shown) [Compound 15] ?
> 2000 nM

Which IC50 reading was recorded for the compound CC(=O)c1c(S(=O)(=O)Cc2ccccc2)nc2c(Br)ccc(Cl)c2c1O [Compound 54] ?
> 2000 nM

Which IC50 reading was recorded for the compound CC(=O)c1c([S+]([O-])Cc2ccc(S(F)(F)(F)(F)F)cc2F)[nH]c2c(Br)ccc(Cl)c2c1=O (stereo not shown) [Compound 69] ?
> 2000 nM

Which IC50 reading was recorded for the compound CC(=O)c1c([S+]([O-])Cc2ccc(C(C)(C)C)cc2)[nH]c2c(Br)ccc(Cl)c2c1=O (stereo not shown) [Compound 60] ?
> 2000 nM

Which IC50 reading was recorded for the compound COc1cccc(C[S+]([O-])c2[nH]c3c(Br)ccc(Cl)c3c(=O)c2C(C)=O)c1 (stereo not shown) [Compound 55] ?
> 2000 nM

Which IC50 reading was recorded for the compound CC(=O)c1c([S+](C)[O-])[nH]c2c(Br)ccc(Cl)c2c1=O (stereo not shown) [Compound 1] ?
> 2000 nM

Which IC50 reading was recorded for the compound CC(=O)c1c([S+]([O-])Cc2ccc(C#N)s2)[nH]c2c(Br)ccc(Cl)c2c1=O (stereo not shown) [Compound 98] ?
1810 nM

Which IC50 reading was recorded for the compound O=C(c1ccccc1)c1c([S+]([O-])Cc2ccc(S(F)(F)(F)(F)F)cc2)[nH]c2c(F)ccc(F)c2c1=O (stereo not shown) [Compound 87] ?
> 2000 nM

Which IC50 reading was recorded for the compound CCS(=O)(=O)n1c([S+](C)[O-])c(C(C)=O)c(=O)c2c(Cl)ccc(Br)c21 (stereo not shown) [Compound 39] ?
> 2000 nM

Which IC50 reading was recorded for the compound CC(=O)c1c([S+]([O-])Cc2ccc(C(F)(F)F)cc2)[nH]c2c(Br)ccc(Cl)c2c1=O (stereo not shown) [Compound 70] ?
> 2000 nM

Which IC50 reading was recorded for the compound CC(=O)c1c([S+]([O-])Cc2ccccc2C#N)[nH]c2c(Br)ccc(Cl)c2c1=O (stereo not shown) [Compound 58] ?
> 2000 nM

Which IC50 reading was recorded for the compound Cc1cc(C[S+]([O-])c2[nH]c3c(Cl)ccc(Cl)c3c(=O)c2C(=O)C2CC2)no1 (stereo not shown) [Compound 97] ?
1330 nM

Which IC50 reading was recorded for the compound CSc1c(C(C)=O)c(=O)c2c(Cl)ccc(Br)c2n1S(=O)(=O)c1ccc(C(C)(C)C)cc1 [Compound 40] ?
> 2000 nM

Which IC50 reading was recorded for the compound CC(=O)c1c([S+]([O-])Cc2ccc(N)nc2)[nH]c2c(Br)ccc(Cl)c2c1=O (stereo not shown) [Compound 100] ?
> 2000 nM

Which IC50 reading was recorded for the compound CC(=O)c1c([S+]([O-])Cc2ccc(C#N)cc2)[nH]c2c(Br)ccc(Cl)c2c1=O (stereo not shown) [Compound 73] ?
> 2000 nM

Which IC50 reading was recorded for the compound CC(=O)c1c([S+]([O-])Cc2ccc(I)cc2)[nH]c2c(Cl)ccc(Cl)c2c1=O (stereo not shown) [Compound 83] ?
> 2000 nM
